Target: CYP1A2 (Homo sapiens, UniProt P05177)
Sequence (P05177 whole entry): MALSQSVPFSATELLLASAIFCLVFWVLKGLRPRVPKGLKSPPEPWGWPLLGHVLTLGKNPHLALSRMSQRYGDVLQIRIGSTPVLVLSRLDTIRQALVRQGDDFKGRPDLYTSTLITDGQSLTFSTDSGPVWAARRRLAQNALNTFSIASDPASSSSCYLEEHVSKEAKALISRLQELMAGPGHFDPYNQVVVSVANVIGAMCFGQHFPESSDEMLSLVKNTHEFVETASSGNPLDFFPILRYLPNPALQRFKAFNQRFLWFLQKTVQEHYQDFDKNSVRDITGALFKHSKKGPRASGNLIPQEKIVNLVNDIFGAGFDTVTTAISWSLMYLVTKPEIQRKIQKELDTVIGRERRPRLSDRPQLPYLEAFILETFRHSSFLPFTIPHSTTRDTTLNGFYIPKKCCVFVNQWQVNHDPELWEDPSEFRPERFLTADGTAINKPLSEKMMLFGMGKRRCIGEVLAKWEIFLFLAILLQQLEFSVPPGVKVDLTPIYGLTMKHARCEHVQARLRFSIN
Experiment: Inhibition of CYP1A2 (unknown origin) at 10 uM relative to control
Type: ADME
Readout: inhibition at 10 µM (%)
Kindly provide the numeric value in % only, without the unit symbol.

Query :: Tell me inhibition at 10 µM reported for CN(C)C(=O)CCNC(=O)c1cc(-c2ccc(F)cc2)no1
Result :: 6

Query :: Tell me inhibition at 10 µM reported for CC(=O)N1CC2(CC(NC(=O)c3cc(-c4ccccc4)no3)C2)C1
Result :: 3

Query :: Tell me inhibition at 10 µM reported for CC(=O)N1CC2(CC(NC(=O)c3cc(-c4ccc(F)cc4)no3)C2)C1
Result :: 1

###

assay: Cytotoxicity against human bone marrow derived CD34+ cells assessed as effect on cell viability at 15 uM by propidium iodide staining based assay relative to control; design: species or system CD34-positive (myeloid/lymphoid) cell; conditions: read-out: Activity
Readout: viability at 15 µM (%)
Kindly provide the numeric value in % only, without the unit symbol.

Query :: Tell me viability at 15 µM reported for CC(=O)N1CC2(CC(NC(=O)c3cc(-c4ccccc4)no3)C2)C1
Result :: 20

###

assay: Half life in monkey at 10 mg/kg, po; format: ADME, organism-based, Macaca mulatta; conditions: rhesus monkey, in vivo
Readout: half-life (min)
Kindly provide the numeric value in min only, without the unit symbol.

Query :: Tell me half-life reported for CN(C)C(=O)CCNC(=O)c1cc(-c2ccc(F)cc2)no1
Result :: 60

###

Assign solubility to each entry below.
assay: Solubility of the compound in pH 6.8 JP2 fluid; format: physicochemical

Query :: Tell me solubility reported for CN(C)C(=O)CCNC(=O)c1cc(-c2ccc(F)cc2)no1
Result :: > 100 µg/mL

Query :: Tell me solubility reported for CC(=O)N1CC2(CC(NC(=O)c3cc(-c4ccc(F)cc4)no3)C2)C1
Result :: > 100 µg/mL

Query :: Tell me solubility reported for CC(=O)N1CC2(CC(NC(=O)c3cc(-c4ccccc4)no3)C2)C1
Result :: > 100 µg/mL

###

target: CYP3A4 (Homo sapiens); experiment: Inhibition of CYP3A4 (unknown origin) at 10 uM relative to control; format: ADME
Sequence (P08684 whole entry): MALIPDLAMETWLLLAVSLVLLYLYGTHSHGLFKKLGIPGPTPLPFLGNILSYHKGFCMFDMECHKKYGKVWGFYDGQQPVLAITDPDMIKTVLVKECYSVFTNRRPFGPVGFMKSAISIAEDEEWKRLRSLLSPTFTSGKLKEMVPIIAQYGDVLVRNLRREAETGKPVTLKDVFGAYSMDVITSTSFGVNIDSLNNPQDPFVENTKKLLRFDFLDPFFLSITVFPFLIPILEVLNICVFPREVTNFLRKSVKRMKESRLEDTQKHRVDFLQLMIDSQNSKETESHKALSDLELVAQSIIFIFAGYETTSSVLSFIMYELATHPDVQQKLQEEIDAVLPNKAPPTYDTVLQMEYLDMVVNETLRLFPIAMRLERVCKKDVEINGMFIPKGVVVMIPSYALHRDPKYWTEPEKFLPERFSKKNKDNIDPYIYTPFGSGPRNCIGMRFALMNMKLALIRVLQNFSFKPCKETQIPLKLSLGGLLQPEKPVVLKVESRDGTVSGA
Assign inhibition at 10 µM to each entry below.

Query :: Tell me inhibition at 10 µM reported for CC(=O)N1CC2(CC(NC(=O)c3cc(-c4ccccc4)no3)C2)C1
Result :: < 0%

Query :: Tell me inhibition at 10 µM reported for CC(=O)N1CC2(CC(NC(=O)c3cc(-c4ccc(F)cc4)no3)C2)C1
Result :: < 0%

Query :: Tell me inhibition at 10 µM reported for CN(C)C(=O)CCNC(=O)c1cc(-c2ccc(F)cc2)no1
Result :: < 0%

meta.source: ChEMBL document CHEMBL4699452
